# Target entity: turkey β4C-adrenoceptor (tβ4C) (Meleagris gallopavo)
# Construct: expressed in transfected cells
# Sequence (P43141 whole entry): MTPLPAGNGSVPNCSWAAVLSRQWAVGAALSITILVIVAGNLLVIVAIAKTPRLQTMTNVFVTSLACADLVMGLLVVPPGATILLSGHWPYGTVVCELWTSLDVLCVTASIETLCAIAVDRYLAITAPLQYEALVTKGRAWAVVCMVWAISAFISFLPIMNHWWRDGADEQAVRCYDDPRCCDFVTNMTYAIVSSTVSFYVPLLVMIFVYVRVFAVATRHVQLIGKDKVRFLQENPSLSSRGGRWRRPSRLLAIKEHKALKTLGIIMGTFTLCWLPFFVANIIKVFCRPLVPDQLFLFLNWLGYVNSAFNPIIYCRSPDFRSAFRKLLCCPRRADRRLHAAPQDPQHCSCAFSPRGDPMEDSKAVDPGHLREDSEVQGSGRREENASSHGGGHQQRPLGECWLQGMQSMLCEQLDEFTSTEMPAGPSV
# Assay method text: cell-based
# Format: binding
# Condition label: competition with 3H-CGP12177, whole cells, CHO tβ4C; given as log KD; mean ± s.e.m.; read-out: Log KD (converted)
Measurement name: log10 Kd (log10 of the value in nM)
Use the decimal logarithm of Kd (nM).

Sample answers from the record:
> print(dat)
                                   molecule  numeric.result
1  CC(C)NCC(O)COc1cccc2[nH]c3ccccc3c12 (stereo not shown) [Carazolol]           -1.27
2  CC(C)NCC(O)c1ccc(NS(C)(=O)=O)cc1 (stereo not shown) [Sotalol]            2.84
3  NC[C@H](O)c1ccc(O)c(O)c1 [Noradrenaline]            2.70
4  C=CCc1ccccc1OCC(O)CNC(C)C (stereo not shown) [Alprenolol]            1.15
5  CC(C)(Cc1c[nH]c2ccccc12)NCC(O)COc1ccccc1C#N (stereo not shown) [Bucindolol]           -0.41

Short answer for Cc1ccc(Cl)c(OCC(O)CNC(C)(C)C)c1 (stereo not shown) [Bupranolol] : log10 Kd was 0.82

The recorded log10 Kd for OC(CNCC(O)C1CCc2cc(F)ccc2O1)C1CCc2cc(F)ccc2O1 (stereo not shown) [Nebivolol] is 0.17
